The following binders are listed with their measured koff values.
Molecular target: T1, human CD3ε/δ-Fc fusion protein (soluble recombinant CD3ε/δ complex) (human, UniProt P04234 22-105)
T1 construct: also called huCD3ε/δ; huCD3; not shown: hinge, CH2, CH3 of human IgG with tag
T1 sequence (chain, as listed by the source mutant, chain 1 of 2): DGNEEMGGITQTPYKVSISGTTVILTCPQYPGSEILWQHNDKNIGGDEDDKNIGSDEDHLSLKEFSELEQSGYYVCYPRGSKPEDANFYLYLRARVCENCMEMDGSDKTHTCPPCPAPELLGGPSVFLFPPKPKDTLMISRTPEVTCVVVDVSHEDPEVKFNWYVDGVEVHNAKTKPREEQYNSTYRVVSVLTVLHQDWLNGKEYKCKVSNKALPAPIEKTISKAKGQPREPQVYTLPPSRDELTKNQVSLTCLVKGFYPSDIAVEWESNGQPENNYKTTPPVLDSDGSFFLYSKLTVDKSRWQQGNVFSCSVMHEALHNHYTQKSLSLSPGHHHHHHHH
T1 sequence (P04234 22-105, stated change not applied, chain 2 of 2): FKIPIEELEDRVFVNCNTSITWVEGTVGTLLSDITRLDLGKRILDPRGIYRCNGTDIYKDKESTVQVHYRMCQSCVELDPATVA
Assay: SPR Biacore, Fab

binder	koff
humanized 4B4 Fab 4B4_10 (VL1_CM2, VH6_BM2) (Fab, V domains shown) VH: QVQLVESGGRVVQPGRSLRLTCAASGFTFSNAWMHWVRQAPGKQLEWVAQIKARSNNYATYYAESVKGRFTISRDDSKSTIYLQMNSLRAEDTAVYYCRGTYYASKPFDYWGQGTTVTVSS VL: DVVMTQSPLSLSVTLGQPVSISCRSSQSLVHDNGNTYLSWSLQRPGQSPRVLIYKVSNRFSGVPDRFSGSGSGTDFTLKISRVEAEDVGVYYCGQGTQYPFTFGSGTKLEIK	0.00399 s⁻¹
humanized 4B4 Fab 4B4_5 (VL2C, VH6D) (Fab, V domains shown, expressed as Fab-fragment) VH: QVQLVESGGGVVQPGRSLRLSCATSGFTFSNAWMHWVRQAPGKQLEWVAQIKARSNNYATYYADSVKGRFTISRDDSKSTIYLQMNSLRAEDTAVYYCRGTYYASKPFDYWGQGTLVTVSS VL: DIVMTQTPLSLSVTPGQPASISCKSSQSLVHDNGNTYLSWSLQKPGQSPQVLIYKVSNRFSGVPDRFSGSGSGTDFTLKISRVEAEDVGVYYCGQGTQYPFTFGSGTKLEIK	0.00423 s⁻¹
4B4-D7 Fab (Fab, V domains shown, also called BDW-4B4-D7) VH: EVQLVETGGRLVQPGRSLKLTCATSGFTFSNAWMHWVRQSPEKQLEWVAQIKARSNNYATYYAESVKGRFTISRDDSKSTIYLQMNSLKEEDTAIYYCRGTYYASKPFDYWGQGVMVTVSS VL: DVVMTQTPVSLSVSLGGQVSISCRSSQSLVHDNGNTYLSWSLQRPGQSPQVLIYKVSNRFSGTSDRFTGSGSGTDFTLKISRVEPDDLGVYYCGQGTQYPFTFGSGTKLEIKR	0.00285 s⁻¹
